- assayed_target: NAD-dependent protein deacetylase (Schistosoma mansoni)
- assay_name: Inhibition of recombinant Schistosoma mansoni sirtuin 2 (21 to 322 residues) expressed in Escherichia coli BL21(DE3) cells assessed as inhibition of substrate demyristoylation at 20 uM using (Z)-(Myr)-Lys-AMC as susbtrate after 1 hr in presence of NAD+ by homogeneous fluorescence based analysis relative to control
outcome_measure: inhibition

COc1cc(OC)cc(Sc2ccc(C(c3ccccc3)N(C)c3ncc4c(N)nc(N)nc4n3)cc2)c1 (stereo not given) : < 15%

The molecule COc1cc(OC)cc(Sc2ccc(C(C)N(C)c3ncc4c(N)nc(N)nc4n3)cc2)c1 (stereo not given) showed inhibition equal to 15%
